Data provenance is the supplement of paper PMC10567573.

B1: LOXL2 (parent)
chain: FSPDGPSRFRKAYKPEQPLVRLRG

- Variants of: B1
- protocol text: protein stability index of a GFP-peptide fusion (GPS, HEK-293T) (PSI 1-6); higher = more stable;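 also: lentivirally expressed fusions sorted by FACS into six bins by GFP to DsRed ratio, PSI derived from sequencing read proportions per bin multiplied by bin number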
- assay context: c terminus: a fixed tail appended
measured parameter: protein stability index
Keep the answer to the number alone.

variant key: L19A
observed measurement: 2.01
--
variant key: R10Q
observed measurement: 1.99
--
variant key: L22C
observed measurement: 1.95

Would you kindly look at the next entry?
GET /values?readout=protein stability index&item= `A12D` 2.03
